measurement.target: NaV1.5 (Homo sapiens, UniProt Q14524)
Construct: human Nav1.5 (hH1, M77235) cRNA expressed in Xenopus laevis oocytes
Sequence (Q14524 whole entry): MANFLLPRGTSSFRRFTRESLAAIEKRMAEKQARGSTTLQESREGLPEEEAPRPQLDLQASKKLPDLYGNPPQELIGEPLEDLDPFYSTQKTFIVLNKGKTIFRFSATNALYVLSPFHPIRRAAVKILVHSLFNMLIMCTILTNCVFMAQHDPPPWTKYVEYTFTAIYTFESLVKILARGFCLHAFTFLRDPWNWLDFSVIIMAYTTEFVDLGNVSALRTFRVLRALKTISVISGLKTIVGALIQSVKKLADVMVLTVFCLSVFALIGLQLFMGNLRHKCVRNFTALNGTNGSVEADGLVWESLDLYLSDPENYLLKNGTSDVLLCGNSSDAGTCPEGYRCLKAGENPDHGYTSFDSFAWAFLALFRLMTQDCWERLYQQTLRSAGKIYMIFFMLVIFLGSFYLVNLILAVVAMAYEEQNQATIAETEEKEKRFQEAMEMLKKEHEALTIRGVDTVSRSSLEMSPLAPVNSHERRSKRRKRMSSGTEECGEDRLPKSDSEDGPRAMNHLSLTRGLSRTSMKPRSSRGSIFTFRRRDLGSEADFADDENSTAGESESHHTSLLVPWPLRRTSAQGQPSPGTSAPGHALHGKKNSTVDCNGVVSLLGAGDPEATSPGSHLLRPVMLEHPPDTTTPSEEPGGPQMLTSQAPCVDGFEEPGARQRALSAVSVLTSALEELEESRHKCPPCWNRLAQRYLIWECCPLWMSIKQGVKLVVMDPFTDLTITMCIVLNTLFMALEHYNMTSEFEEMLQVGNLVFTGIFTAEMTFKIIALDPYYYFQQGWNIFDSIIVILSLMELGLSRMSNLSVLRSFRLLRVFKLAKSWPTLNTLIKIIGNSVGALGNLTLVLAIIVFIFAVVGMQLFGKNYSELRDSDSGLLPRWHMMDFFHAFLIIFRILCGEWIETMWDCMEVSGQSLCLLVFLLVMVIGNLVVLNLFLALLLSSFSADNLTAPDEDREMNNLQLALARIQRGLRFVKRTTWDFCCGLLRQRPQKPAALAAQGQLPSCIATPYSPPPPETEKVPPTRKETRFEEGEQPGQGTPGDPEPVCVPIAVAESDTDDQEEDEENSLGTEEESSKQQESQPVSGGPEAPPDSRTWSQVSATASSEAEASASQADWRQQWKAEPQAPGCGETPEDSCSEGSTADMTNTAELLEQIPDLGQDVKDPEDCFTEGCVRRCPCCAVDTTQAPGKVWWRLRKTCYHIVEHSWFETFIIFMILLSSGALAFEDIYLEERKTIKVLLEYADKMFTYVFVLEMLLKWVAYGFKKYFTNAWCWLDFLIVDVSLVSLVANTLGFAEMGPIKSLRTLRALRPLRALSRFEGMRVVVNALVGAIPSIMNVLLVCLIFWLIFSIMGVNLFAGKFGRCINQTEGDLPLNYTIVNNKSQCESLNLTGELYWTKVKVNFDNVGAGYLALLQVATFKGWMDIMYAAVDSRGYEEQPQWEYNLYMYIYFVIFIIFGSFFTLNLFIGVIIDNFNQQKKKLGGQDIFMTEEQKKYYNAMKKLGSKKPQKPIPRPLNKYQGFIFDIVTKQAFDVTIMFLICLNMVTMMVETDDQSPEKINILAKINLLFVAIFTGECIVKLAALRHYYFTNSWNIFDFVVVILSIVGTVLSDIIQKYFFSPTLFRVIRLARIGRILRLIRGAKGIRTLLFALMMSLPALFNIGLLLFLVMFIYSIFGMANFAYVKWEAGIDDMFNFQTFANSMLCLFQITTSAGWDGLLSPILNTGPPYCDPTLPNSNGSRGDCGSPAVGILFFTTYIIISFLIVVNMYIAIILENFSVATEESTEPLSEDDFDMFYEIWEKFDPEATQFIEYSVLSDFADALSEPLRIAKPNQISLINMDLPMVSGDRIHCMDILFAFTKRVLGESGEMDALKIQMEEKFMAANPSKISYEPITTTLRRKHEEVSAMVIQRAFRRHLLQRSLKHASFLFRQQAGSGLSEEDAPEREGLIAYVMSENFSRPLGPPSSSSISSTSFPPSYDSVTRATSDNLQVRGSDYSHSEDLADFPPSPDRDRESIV
test: two-electrode voltage clamp in Xenopus oocytes, block of inward current
pIC50: −log10 of the molar value.

{"smiles.representation": "CC(C)OC(=O)CCC/C=C\\C[C@@H]1[C@@H](/C=C/C(F)(F)COc2ccccc2)[C@H](O)C[C@@H]1O", "pIC50": "~4.12"}
